Test description: Toxicity liver stage against HepG2, at 10uM
Assay type: cell-based
Design: test concentration 10 uM, cell line HepG2-A16-CD81EGFP
Details: human, HepG2-A16-CD81EGFP cells; read-out: INHIBITION
Known cytotoxicity at 10 µM of a selection of compounds
Entry rule: numbers only, all in %.

Answered cases to consult:
# Compound, cytotoxicity at 10 µM (%)
measured = [
    ("Cc1cccc(-c2nc(CN3CCCC3Cn3cc(C)cn3)no2)c1 (stereo unspecified)", -1.82),
    ("COCCC(=O)N1CCC(c2cc3ncc(C)nc3[nH]2)CC1", -8.86),
    ("CNC(=O)CN1CCC(NC(=O)Cn2cc(C)c3ccccc32)CC1", -4.65),
    ("CC(c1ncc(C(C)(C)C)o1)N1CCN(Cc2ccco2)CC1 (stereo unspecified)", 5.3),
    ("Cc1cc(CN2CC[C@H]3[C@H]2CCN3S(C)(=O)=O)oc1C", -1.69),
]

Note: attention shifts to another entry.
Quick check: cytotoxicity at 10 µM of COc1ccc(C2CCCN2C(=O)NCCNc2ccccn2)cc1 (stereo unspecified) ?
6.64

====

Test description: Toxicity liver stage against HepG2, at 10uM
Format: cell-based
Design: test concentration 10 uM, cell line HepG2-A16-CD81EGFP
Details: human, HepG2-A16-CD81EGFP cells; read-out: INHIBITION
Metric: cytotoxicity at 10 µM (%)
Entry rule: numbers only, all in %.

Answered cases to consult:
# Compound, cytotoxicity at 10 µM (%)
rows = [
    ("Cn1cc(CN2CCCC3(CCN(C(=O)c4ccoc4)C3)C2)cn1 (stereo not given)", -71.9),
    ("Cc1nc(N2CCN(C(=O)c3ccncc3)CC2)c2c(n1)c(C)nn2C", 10.3),
    ("CNC(=O)C(C)(C)NC(=O)c1cc(COc2cccc(C(C)=O)c2)[nH]n1", 3.69),
    ("CCN1CCCC1(C)c1nc(C)cc(N)n1 (stereo not given)", -2.17),
    ("Cc1oc(C)c(C(=O)NCc2cccc(NC(=O)CN(C)C)c2)c1C", -6.54),
]

Quick check: cytotoxicity at 10 µM of CC(NC(=O)Cn1cccnc1=O)c1ccc(OC(F)(F)F)cc1 (stereo not given) ?
1.66

Now the same for COc1ccccc1CC(=O)N(C)Cc1cc(C)on1
4.76

Now the same for CC(C)Cc1noc(CN2CCN(c3nccs3)CC2)n1
0.607

Now the same for CC(O)(CCc1ccccc1)CNC(=O)c1ccc(F)cc1 (stereo not given)
-70.3

Now the same for Cc1cccc2c1ccn2CCC(=O)Nc1c2c(nn1C)CSC2
3.03

Now the same for CCS(=O)(=O)c1ccc2c(c1)OCCO2
-1.38

Now the same for CCCC(CNc1cc(C(C)C)nc2ccnn12)N(C)C (stereo not given)
5.6

Now the same for O=C1NCCN1C1CCN(CCc2cccs2)CC1
-1.32

Now the same for O=C(c1cc2ccccc2o1)N1CCN(Cn2cc(Cl)cn2)CC1
9.31

====

Test description: Toxicity liver stage against HepG2, at 10uM
Assay type: cell-based
Design: test concentration 10 uM, cell line HepG2-A16-CD81EGFP
Details: human, HepG2-A16-CD81EGFP cells; read-out: INHIBITION
Known cytotoxicity at 10 µM of a selection of molecules
Entry rule: numbers only, all in %.

Answered cases to consult:
# Molecule, Metric, Quantitative readout
measured = [
    ("COCCCN1CCCC(c2nccn2CC2CCC2)C1 (configuration not stated)", "cytotoxicity at 10 µM", -3.94),
    ("COCC(=O)N1CCOCC2(CCN(Cc3cccs3)C2)C1 (configuration not stated)", "cytotoxicity at 10 µM", -6.16),
    ("O=C1NC2(CCN(Cc3ccsc3)CC2)CC1c1ccncc1 (configuration not stated)", "cytotoxicity at 10 µM", 4.93),
]

Quick check: cytotoxicity at 10 µM of Cc1cc(NCCCC(F)(F)F)n2nc(C)cc2n1 ?
0.894

Now the same for O=C(C1CCS(=O)(=O)C1)N1CCC(=Cc2cccc(F)c2)CC1 (configuration not stated)
10.6

Now the same for CCOC(=O)CC(c1ccc(OC)cc1)c1c(O)n[nH]c1C (configuration not stated)
-0.244

Now the same for Cc1nc2ccccc2c(=O)n1CCC(=O)N1CCCCCC1
-6.57

Now the same for CC(C)c1nnc(CN2CCN(CC(O)c3ccccc3)CC2)o1 (configuration not stated)
-7.03

Now the same for CC[C@@]1(O)CCN(C(=O)c2ccc(CN3CCCCCC3)cc2)C[C@H]1O
8.44

Now the same for COc1ccc(CN2C[C@@H](N(C)Cc3ccco3)[C@H]3OCCC[C@H]32)cc1
1.18

Now the same for Cn1nnc2c(N3CC(C(=O)NCc4ccccc4F)C3)ncnc21
0.447

Now the same for COc1ccccc1CCN1CCCC(CN(C)Cc2cc(C)n[nH]2)C1 (configuration not stated)
-4.52

Now the same for COCC1CCN(CCCc2cn[nH]c2)CC1
11.3

Now the same for COc1ccc(O)c(C(=O)NCC2CCCN(C3CCOCC3)C2)c1 (configuration not stated)
-3.23

Now the same for Cc1noc(C(C)N2CCN(CCOCC(F)(F)F)CC2)n1 (configuration not stated)
-1.4

Now the same for O=C(Cc1cccc(F)c1F)NS(=O)(=O)c1ccc(Cl)cc1F
-6.11

Now the same for CN(C)c1ncc(-c2c(-c3ccccc3)ncn2C(CO)C(=O)O)cn1 (configuration not stated)
0.471

Now the same for CN(CCc1ccncc1)C(=O)c1sccc1OC(F)F
-9.32

Now the same for CCc1c(C)nc2cc(C3CCN(Cc4cccc(F)c4)C3)nn2c1O (configuration not stated)
-6.43

Now the same for Cc1ccc(NC2CCN(C(=O)c3nccc4ccccc34)CC2)nn1
-13.5

Now the same for Cc1nc(CN2CCCC(N(C)c3ccc(C#N)cn3)C2)no1 (configuration not stated)
-6.76

====

Known cytotoxicity at 10 µM of a selection of molecules
Test description: Toxicity liver stage against HepG2, at 10uM
Type: cell-based
Design: test concentration 10 uM, cell line HepG2-A16-CD81EGFP
Details: human, HepG2-A16-CD81EGFP cells; read-out: INHIBITION
Entry rule: numbers only, all in %.

Quick check: cytotoxicity at 10 µM of CC(C)N(C)Cc1nnc2n1CCCN(c1ncccn1)C2 ?
3.24

Now the same for c1ccc(Cn2cccn2)c(CN2CCC3(CCCNC3)C2)c1 (stereo unspecified)
-13

Now the same for CCC[C@@H]1CN(Cc2cnc(-c3cccs3)nc2)C[C@H]1C(=O)O
-22.9

====

Test description: Toxicity liver stage against HepG2, at 10uM
Type: cell-based
Set-up: test concentration 10 uM, cell line HepG2-A16-CD81EGFP
Details: human, HepG2-A16-CD81EGFP cells; read-out: INHIBITION
Metric: cytotoxicity at 10 µM (%)
Entry rule: numbers only, all in %.

# Compound, cytotoxicity at 10 µM [%]
rows = [
    ("Cc1nc(C2CCN(S(=O)(=O)c3ccc4c(c3)CCC4)CC2)n[nH]1", -1.24),
    ("CC(C)c1nnc(NC(=O)CN2C(=O)c3ccccc3NC2C(C)C)s1 (stereo unspecified)", -10.2),
    ("CC(C)Cc1cc(NC(=O)N2CCC(Oc3cccnc3)C2)n(C)n1 (stereo unspecified)", -4.71),
    ("Cc1nc(CN2CCCC(CCc3ccc(F)cc3F)C2)c[nH]1 (stereo unspecified)", -9.67),
    ("CCN1CCCC2(CCN(Cc3nnc(C4CC4)o3)C2)C1=O (stereo unspecified)", 1.56),
]

Note: attention shifts to another entry.
Quick check: cytotoxicity at 10 µM of CCCC1CCCN(C(=O)Nc2ccnc(C(=O)N(C)C)c2)CC1 (stereo unspecified) ?
9.58

====

Test description: Toxicity liver stage against HepG2, at 10uM
Type: cell-based
Design: test concentration 10 uM, cell line HepG2-A16-CD81EGFP
Details: human, HepG2-A16-CD81EGFP cells; read-out: INHIBITION
Known cytotoxicity at 10 µM of a selection of molecules

Quick check: cytotoxicity at 10 µM of CN(Cc1ccco1)[C@@H]1CN(Cc2cnn(C)c2)[C@@H]2CCCO[C@H]12 ?
-75.8%

Now the same for Cc1nnc(SCC(=O)c2cc3c(cc2Cl)NC(=O)C3)o1
-5.28%

Now the same for COc1ccc(CNC(=O)CCN2C[C@@H](C)[C@](O)(C3CC3)C2)cc1
-12.5%

Now the same for Cc1cc(OCc2ccc(C(=O)O)s2)ccc1Cl
12.2%

Now the same for c1cn(Cc2ccc(N3CCCN(C4CCCC4)CC3)nc2)cn1
12%

Now the same for CCCN1CCCCCC1Cc1c(C(=O)NC)sc2ccccc12 (stereo unspecified)
8.53%

Each recorded value in this set is attributed to ChEMBL document CHEMBL4513216.
